Origin of measurements: PubChem BioAssay

Assay: yeast growth modulation, basal conditions, primary screen, YJM789 clinical isolate, OD600, 24 h (AID 1089);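 note: growth of clinical yeast isolate S. cerevisiae YJM 789 seeded 1000 cells per well; test concentration not given here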
Details: S. cerevisiae YJM789 growth, higher = more signal, called active from +8 up or from −8 down
Catalogue of compounds with associated z-score
The answer should be written as a number, with no unit following it.

Examples from the recorded data:
>  <compound>
O=C1C2C=CC(C(O)c3cccc(O)c3)N(Nc3ccccc3F)C2C(=O)N1c1ccccc1 (centres undefined)

>  <z-score>
-25

$$$$
>  <compound>
COc1ccc([Si](C)(C)[C@@H]2[C@@H](CCO)O[C@]3(C(=O)N(Cc4ccccc4)c4ccc(N5C(=O)c6ccccc6Oc6ccccc65)cc43)[C@H]2C)cc1

>  <z-score>
1.32

$$$$
>  <compound>
C=CCC(OC(C)=O)[C@@H]1[C@@H](N(Cc2ccc(-c3ccccc3)cc2)C(=O)c2ccc(C)cc2)c2cc(OCCCO)ccc2N1C(=O)c1ccc2ccccc2c1 (some centres undefined)

>  <z-score>
-2.33

$$$$
>  <compound>
COCCOC(=O)N1C(=O)[C@@]2(c3cc(C#CCCO)ccc31)[C@H](c1ccc(O)cc1)N1[C@H](c3ccccc3)[C@H](c3ccccc3)OC(=O)[C@H]1[C@@H]2C(=O)N1CCc2cc(OC)c(OC)cc2C1

>  <z-score>
0.47

$$$$
>  <compound>
C[N+](C)(C)CCCCCCNC(=O)[C@H]1C[C@H]2C(=O)NCC(=O)N2[C@H]1c1cccc(OCCO)c1

>  <z-score>
-0.874

$$$$

Input line: Which z-score value is on record for `COc1ccccc1CN1C(=O)c2ccccc2[C@](Cc2ccccc2I)(C(=O)NCCCN(C)C)[C@@H]1c1ccc(CO)cc1` ?
Output line: 0.404

Input line: Name the recorded z-score for COc1cc2c(cc1O)C(c1ccc(CN3CCCC3)cc1)N(Cc1cccc(OC(F)(F)F)c1)CC2 (centres undefined) .
Output line: -26.1

Input line: # get_value(readout='z-score', item= `COC(=O)[C@@]1(Cc2ccc(F)cc2)[C@H]2c3cc(C(=O)N(C)C)n(CCn4cc([N+](=O)[O-])nc4C)c3C[C@H]2CN1C(=O)c1ccccc1` )
Output line: 0.126

Input line: Which z-score value is on record for `COc1ccc([Si](C)(C)[C@H]2[C@H](CCn3cc([C@H](O)c4ccccc4)nn3)O[C@@]3(C(=O)N(C)c4c(Br)cc(C)cc43)[C@@H]2C)cc1` ?
Output line: 0.31

Input line: Quick check: z-score of `COc1ccc([Si](C)(C)[C@H]2[C@H](CCn3cc([C@H](O)c4ccccc4)nn3)O[C@@]3(C(=O)N(c4ccccc4)c4ccccc43)[C@@H]2C)cc1` ?
Output line: 1.02

Input line: So what's the measured z-score for this one? `NCCCC[C@@H]1NC(=O)[C@H]2C[C@@H](C(=O)O)[C@@H](c3cccc(OCCO)c3)N2C1=O`
Output line: 1.42

Input line: Give the measured z-score of `COc1ccc(CCNC(=O)[C@@]2(Sc3ccc(C)cc3)CC(=O)N(C(C)C)[C@@H]2c2ccc(CO)cc2)cc1` .
Output line: 0.956

Input line: Fill in: z-score of `COc1ccccc1CN1C(=O)c2ccccc2[C@@H](C(=O)NCCCN(C)C)[C@@H]1c1ccc(CO)cc1` is ___
Output line: -0.376

Input line: # lookup: z-score of `CCCCC(=C=CC[C@H](O)c1ccc(OCCO)cc1)C[C@H](O)c1ccccn1`
Output line: 0.415

====

Experiment: small-molecule microarray binders of probe aShh, primary screen, biochemical, biotinylated probe, 635/667 nm fluorescence (AID 1114);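 note: probe is biotin-labelled aShh protein from a stem cell growth factor screen; measures binding of labelled protein to compounds printed on the slide; score merges feature fluorescence at 667 nm with signal-to-noise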
Settings: higher = more signal
Would you mind labelling by composite z-score? At or over -0.1 is Satisfied, under is Not satisfied.

>  <molecule>
CC(C)C[C@H]1NC(=O)[C@@]23C(=O)N[C@@H](Cc4ccccc4)C2[C@H](C)[C@@]2(C)O[C@H]2C3/C=C/C/C=C\CNC(=O)[C@@H]2CCCN2C1=O (stereo partly drawn)

>  <answerLabel>
Satisfied

$$$$
>  <molecule>
COCCOC(=O)N1C(=O)[C@@]2(c3cc(C#CCNC(N)=O)ccc31)[C@H](C(=O)NC[C@H](O)c1ccccc1)[C@H]1C(=O)O[C@H](c3ccccc3)[C@H](c3ccccc3)N1[C@@H]2c1ccc(OCCO)cc1

>  <answerLabel>
Satisfied

$$$$
>  <molecule>
C#CCN(C/C=C/c1ccccc1)[C@H](CO[Si](C)(C)C(C)(C)C)c1ccccc1

>  <answerLabel>
Satisfied

$$$$
>  <molecule>
CCOC(=O)C1=C[C@@H](C(C)(C)C)N(S(=O)(=O)c2ccc(C)cc2)[C@H]1c1ccccc1Cl

>  <answerLabel>
Not satisfied

$$$$
>  <molecule>
CC(=O)c1ccc(C(O)C2C=CC3C(=O)N(C)C(=O)C3N2NC(=O)OC(C)(C)C)cc1 (stereo not drawn)

>  <answerLabel>
Satisfied

$$$$
>  <molecule>
C=CCC(OC(C)=O)[C@@H]1[C@@H](N(Cc2cc3ccccc3o2)C(=O)c2cccc3ccccc23)c2cc(OCCCO)ccc2N1C(=O)c1ccc2ccccc2c1 (stereo partly drawn)

>  <answerLabel>
Not satisfied

$$$$
>  <molecule>
C=CCOC(=O)[C@H]1[C@@H]2C(=O)O[C@@H](c3ccccc3)[C@@H](c3ccccc3)N2[C@@H](c2ccc(OCCOC(=O)[C@@H]3C[C@@H]4C(=O)N[C@@H](Cc5ccccc5)C(=O)N4[C@@H]3c3ccc(O)cc3)cc2)[C@]12C(=O)Nc1ccccc12

>  <answerLabel>
Not satisfied

$$$$

We next turn to a different molecule, shown below.
Input line: Could you please find out whether `CC(=O)NCCCC[C@@H]1NC(=O)[C@@H]2C[C@H](C(=O)NCCCCCC[N+](C)(C)C)[C@H](c3ccc(O)cc3)N2C1=O` has composite z-score that meets -0.1 or exceeds it?
Output line: Satisfied

====

Experiment: Plasmodium falciparum growth inhibition, primary screen, strain 3D7, DAPI fluorescence, 100 nL (AID 1184);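 note: parasites grown inside human red blood cells in medium with human serum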
Settings: P. falciparum 3D7 growth, 3 d, higher = more signal
experimentalReadout: z-score

>  <compound>
COc1cc2c(cc1O)C(c1ccc(CN3CCCC3)cc1)N(Cc1cccc(OC(F)(F)F)c1)CC2 (stereo unspecified)

>  <z-score>
-2.1

$$$$
>  <compound>
CC(C)CNC(=O)[C@@H]1c2ccccc2C(=O)N(C(C)C)[C@H]1c1ccc(CO)cc1

>  <z-score>
0.643

$$$$
>  <compound>
C=CC[C@]1(C(=O)OC)N=C(c2ccc(OCCCO)cc2)O[C@H]1c1ccccc1N=[N+]=[N-]

>  <z-score>
-2.21

$$$$
>  <compound>
O=C1OCCC/C=C\[C@H]2OC34C=CCN(Cc5ccccc5)C(=O)[C@H]3N(CCCCCO)C(=O)[C@@H]4C12 (stereo partly specified)

>  <z-score>
0.259

$$$$
>  <compound>
CCCCNC(=O)c1ccc(C#C[Si](C)(C)C)c(OC(C)=O)c1

>  <z-score>
-1.27

$$$$

Input line: Query: z-score; subject: `CCCCC(=C=CC[C@H](O)c1ccc(OCCO)cc1)C[C@H](O)c1ccccn1`
Output line: -0.593

Input line: I'd like to know its z-score. The compound in question is COc1ccc(C(O)C2C=CC3C(=O)N(C)C(=O)C3N2Nc2ccc([N+](=O)[O-])cc2[N+](=O)[O-])cc1OCc1ccccc1 (stereo unspecified)
Output line: 0.664

Input line: Field request: z-score | item: COC(=O)C1(CC(C)C)C=C2C(=C(C(C)C)C(=O)C2C)CN1 (stereo unspecified)
Output line: 1.24

Input line: Form field: reported z-score of `CCOC(=O)C[C@H]1[C@H](OC(=O)c2ccc(C(=O)c3ccccc3)cc2)[C@@H](NC(=O)c2ccc3ccccc3c2)c2cc(OCCCO)ccc2N1C(=O)c1ccc2ccccc2n1`
Output line: -2.68

Input line: I would be grateful if you could share the reported z-score for O=C1C2C=CC(C(O)c3ccc([N+](=O)[O-])cc3)N(Nc3ccccc3)C2C(=O)N1c1ccccc1 (stereo unspecified) .
Output line: 0.45

Input line: Can you look up the measured z-score of O=C1OCCC=C[C@H]2OC34C=CCN(CCN5CCOCC5)C(=O)[C@H]3N(CCCO)C(=O)[C@@H]4C12 (stereo partly specified) for me?
Output line: -1.72

Input line: Request the reported z-score associated with `CN(C)CCCNC(=O)[C@@]1(Cc2ccccc2I)c2ccccc2C(=O)N(Cc2ccccc2)[C@H]1c1ccc(CO)cc1`
Output line: -2.21

Input line: Data request, read-out z-score, for COc1ccc(NN2C(C(O)c3ccc(OC)cc3)C=CC3C(=O)N(C4CCCCC4)C(=O)C32)cc1 (stereo unspecified)
Output line: -0.346

====

Assay: S. cerevisiae RM11-1a growth modifiers, primary screen, strain RM11-1a, OD600, basal, 24 h (AID 1177);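 note: cultures grown under basal conditions with no added stressor; test concentration not given here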
Details: OD600, 24 h, higher = more signal, called active from +8 up or from −8 down
Binary classification by z-score, with 0.06 as an inclusive lower bound for Yes; all other cases are No.

Below are worked cases with known answers.
>  <molecule>
CCN(CC)c1ccc(N2CC=CC34O[C@@H]5C=CCOC(=O)[C@@H]5[C@H]3C(=O)N(CCCO)[C@@H]4C2=O)cc1 (some centres not stated)

>  <answerLabel>
No

$$$$
>  <molecule>
C[N+](C)(C)CCCC[C@@H]1NC(=O)[C@H]2C[C@@H](C(=O)NCCCCCNC(=O)CS)[C@@H](c3ccc(O)cc3)N2C1=O

>  <answerLabel>
No

$$$$
>  <molecule>
CCCCC(=C=CC[C@@H](O)c1cccc(OCCO)c1)CCO

>  <answerLabel>
Yes

$$$$
>  <molecule>
COCCOC(=O)N1C(=O)[C@@]2(c3cc(C#CCCO)ccc31)[C@H](C(=O)N1CCN(c3ncccn3)CC1)[C@H]1C(=O)O[C@H](c3ccccc3)[C@H](c3ccccc3)N1[C@@H]2c1ccc(O)cc1

>  <answerLabel>
Yes

$$$$
>  <molecule>
COc1ccc([Si](C)(C)[C@@H]2[C@@H](CC(=O)N(CCO)Cc3ccccc3)O[C@]3(C(=O)N(Cc4ccc(N5CCC5=O)cc4)c4ccccc43)[C@H]2C)cc1

>  <answerLabel>
Yes

$$$$

Continue with the next molecule.
Input line: Is z-score at least 0.06? Consider C=CCC(OC(C)=O)[C@@H]1[C@@H](N(Cc2ccc(-c3ccccc3)cc2)C(=O)c2cccc3ccccc23)c2cc(OCCCO)ccc2N1C(=O)c1ccc2ccccc2c1 (some centres not stated)
Output line: No
